Test system: K4 kissing-loop RNA reporter;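 further: bound reporter read as fluorescence of individual clusters on recovered sequencing chips by microscopy, with normalized cluster intensities fitted with a binding model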
Test summary: apparent KD of K4 kissing-loop reporter; higher = weaker reporter binding
Measurement setup: Eterna round: R107; input ligand: tryptophan 2.4 mM
Use Yes when the recorded apparent KD of K4 kissing-loop reporter is no lower than 300 nM; use No when it is lower.

Study these solved cases before continuing.
{"Sequence data": "AUUUAUUACAGAAGGAGCGUGUAUUUAUAAUCAUUUAUCUUAGCGAGUGAUGUUCGCUUUACACAGGUAGGUCGCUGUUUAUUUA [JR_Nu_ExcArginiB_Sub027]", "Class label": "No"}
{"Sequence data": "AGUUCUUGCCGAAGGAGCGAGGCAGAGUGAUGUUCUGCAAGAGGUCGAAAGACCUCUCUGCCUCAGGUAGGUCGCGGCAUGAACA [Omei KL Arginine B Exc A v3]", "Class label": "Yes"}
{"Sequence data": "GUUACGCAUGGAAGGAGCGCACUCCGGUUGAUCAACACAGUGAUGUUGUGGUUCAUUCGAAUGCAGGUAGGUCGCCAUGUGUAAC [Ex Arginine B K4 16]", "Class label": "Yes"}
{"Sequence data": "GGUUUAUAGGAGGAUACCAGUACGGAUAAAGUACGUUAAUAGUAGAGUGAUGUUCUAAAGUACCCUUGGCAGCUUAGAGUGAGUU [ExTheophylB.L]", "Class label": "No"}
{"Sequence data": "UAUAGAGUGACGGCCGCCACUAUUGUGAUUUAAUUGUUAGAGUGAUGUUUUGAUGUUUGAUUUUGUAGGACCGGGUUAUAUGUUA [wwwzmullin]", "Class label": "Yes"}
{"Sequence data": "UACAAACGUAGUGAUGUUACGUACUCUGAUACCAGACAAGUGUAAGUCCCUUGGCAGCAGUCAUUUUGCUUAUUAUUUUCUCAAA [JR_ExcTheophyA_Sub019]", "Class label": "No"}
{"Sequence data": "UGUACCGAGUCAGGAUAUGGCGUCGAAAGACGAAACCAGUGAUGUUGGAAAAUCUGCGAAAGCAGUCCAGAAGGGACUUGGUACU [FmnBS 24 #SwitchBubble #StaticStem #DoubleMagnetSystem]", "Class label": "No"}
{"Sequence data": "CCAUUCUGUUACGAUACCAGUCAAAGAUAUUUGAUCAAUACCCUCGCCGAGUGAUGUUCGGACCCUUGGCAGCGUCUGGGACAGG [fdxxvmullin]", "Class label": "Yes"}

Hi, just wondering whether AAGGCCACGAGAAGGAGCGUGUUGUGGAGUGAUGUUCCAUUGUAGACCUAAGGUCUGCGAGCACAGGUAGGUCGCUCGUGGUCAA [whbob_SS_Arginine_B_2t150] shows apparent KD of K4 kissing-loop reporter of 300 nM or higher.
No

Hi, just wondering whether CCGGAGGAAGUCGCUUUUCCUGUGGCAUAGAAGGAUAUCCAAUUAAGGAGAAGGUCUAUCUGCCUUAGUGAUGUUAGGAAGUAGA [theeternabot_sameState_KL_FMN_A_23] shows apparent KD of K4 kissing-loop reporter of 300 nM or higher.
No

Hi, just wondering whether GCAUAGCAGACGUUGAGUGGGAGCCAGGCACGAGGACCGGUACGGCCGCCACUCGACUAGGUUUUCAGUGAUGUUGAAAAUUUAG [Exclusion Tryptophan A GF4] shows apparent KD of K4 kissing-loop reporter of 300 nM or higher.
No
